Ref: patent US20120045393A1

Tested on: LHRH binding sites on human ovarian cancer cells (EFO-27);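 also: Cell-associated radioactivity on confluent EFO-27 monolayers in 96-well plates, measured by microplate scintillation counting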
Non-standard residues stand in square brackets, D forms with d. Residues, ends and D or L forms follow the SMILES beside them. *: point of attachment. DOTA = O=C(O)CN1CCN(CC(=O)O)CCN(CC(=O)*)CCN(CC(=O)O)CC1; Bpa = N[C@@H](Cc1ccc(C(=O)c2ccccc2)cc1)C(=O)O; d2Nal = N[C@H](Cc1ccc2ccccc2c1)C(=O)O
measured_attribute: pEC50
Keep in mind that pEC50 stands for -log10 of concentration in molar terms.

CNCC(=O)N[C@@H](CCCNC(=N)N)C(=O)N[C@@H](Cc1c[nH]c2ccccc12)C(=O)N[C@@H](CO)C(=O)N[C@@H](Cc1c[nH]cn1)C(=O)N[C@H](CCCNC(=N)N)C(=O)N[C@@H](Cc1c[nH]c2ccccc12)C(=O)N[C@@H](Cc1ccc(C(=O)c2ccccc2)cc1)C(=O)N1CCC[C@H]1C(=O)NCCNC(=O)CN1CCN(CC(=O)O)CCN(CC(=O)O)CCN(CC(=O)O)CC1 [compound 3103]; 6.77

Returns the measured pEC50 for the input compound. Input: CC(C)NCCCC[C@H](NC(=O)[C@H](Cc1c[nH]c2ccccc12)NC(=O)[C@@H](CCCNC(=N)N)NC(=O)[C@H](Cc1c[nH]cn1)NC(=O)[C@H](CO)NC(=O)[C@H](Cc1c[nH]c2ccccc12)NC(=O)[C@H](Cc1c[nH]cn1)NC(=O)CN(C)C(=O)CN1CCN(CC(=O)O)CCN(CC(=O)O)CCN(CC(=O)O)CC1)C(=O)N1CCC[C@H]1C(=O)NNC(N)=O [BRU-2675]
4.91

What do you get for CNCC(=O)N[C@@H](Cc1c[nH]cn1)C(=O)N[C@@H](Cc1c[nH]c2ccccc12)C(=O)N[C@@H](CO)C(=O)N[C@@H](Cc1c[nH]cn1)C(=O)N[C@H](CCCNC(=N)N)C(=O)N[C@@H](Cc1c[nH]c2ccccc12)C(=O)N[C@@H](Cc1ccc(C(=O)c2ccccc2)cc1)C(=O)N1CCC[C@H]1C(=O)NCCNC(=O)CN1CCN(CC(=O)O)CCN(CC(=O)O)CCN(CC(=O)O)CC1 [compound 3079] ?
6.23

What do you get for N=C(N)NCCC[C@H](NC(=O)[C@@H](Cc1ccc2ccccc2c1)NC(=O)CN1CCN(CC(=O)O)CCN(CC(=O)O)CCN(CC(=O)O)CC1)C(=O)N[C@@H](Cc1c[nH]c2ccccc12)C(=O)N[C@@H](CO)C(=O)N[C@@H](Cc1c[nH]cn1)C(=O)N[C@H](CCCNC(=N)N)C(=O)N[C@@H](Cc1c[nH]c2ccccc12)C(=O)N[C@@H](Cc1ccc(C(=O)c2ccccc2)cc1)C(=O)O [BRU-3064] ({DOTA}-[d2Nal]RWSH[dR]W[Bpa]-OH) ?
6.14

What do you get for CN(C(=O)CN1CCN(CC(=O)O)CCN(CC(=O)O)CCN(CC(=O)O)CC1)[C@H](Cc1ccc2ccccc2c1)C(=O)N[C@@H](Cc1c[nH]cn1)C(=O)N[C@@H](Cc1c[nH]c2ccccc12)C(=O)N[C@@H](CO)C(=O)N[C@@H](Cc1c[nH]cn1)C(=O)N[C@H](CCCNC(=N)N)C(=O)N[C@@H](Cc1c[nH]c2ccccc12)C(=O)N[C@@H](Cc1ccc(C(=O)c2ccccc2)cc1)C(=O)N1CCC[C@H]1C(=O)NNC(N)=O [BRU-3003] ?
6.12
